Source: paper PMC9977181

SYSTEM_UNDER_TEST: ATM (Homo sapiens, UniProt Q13315)
Sequence (Q13315 whole entry): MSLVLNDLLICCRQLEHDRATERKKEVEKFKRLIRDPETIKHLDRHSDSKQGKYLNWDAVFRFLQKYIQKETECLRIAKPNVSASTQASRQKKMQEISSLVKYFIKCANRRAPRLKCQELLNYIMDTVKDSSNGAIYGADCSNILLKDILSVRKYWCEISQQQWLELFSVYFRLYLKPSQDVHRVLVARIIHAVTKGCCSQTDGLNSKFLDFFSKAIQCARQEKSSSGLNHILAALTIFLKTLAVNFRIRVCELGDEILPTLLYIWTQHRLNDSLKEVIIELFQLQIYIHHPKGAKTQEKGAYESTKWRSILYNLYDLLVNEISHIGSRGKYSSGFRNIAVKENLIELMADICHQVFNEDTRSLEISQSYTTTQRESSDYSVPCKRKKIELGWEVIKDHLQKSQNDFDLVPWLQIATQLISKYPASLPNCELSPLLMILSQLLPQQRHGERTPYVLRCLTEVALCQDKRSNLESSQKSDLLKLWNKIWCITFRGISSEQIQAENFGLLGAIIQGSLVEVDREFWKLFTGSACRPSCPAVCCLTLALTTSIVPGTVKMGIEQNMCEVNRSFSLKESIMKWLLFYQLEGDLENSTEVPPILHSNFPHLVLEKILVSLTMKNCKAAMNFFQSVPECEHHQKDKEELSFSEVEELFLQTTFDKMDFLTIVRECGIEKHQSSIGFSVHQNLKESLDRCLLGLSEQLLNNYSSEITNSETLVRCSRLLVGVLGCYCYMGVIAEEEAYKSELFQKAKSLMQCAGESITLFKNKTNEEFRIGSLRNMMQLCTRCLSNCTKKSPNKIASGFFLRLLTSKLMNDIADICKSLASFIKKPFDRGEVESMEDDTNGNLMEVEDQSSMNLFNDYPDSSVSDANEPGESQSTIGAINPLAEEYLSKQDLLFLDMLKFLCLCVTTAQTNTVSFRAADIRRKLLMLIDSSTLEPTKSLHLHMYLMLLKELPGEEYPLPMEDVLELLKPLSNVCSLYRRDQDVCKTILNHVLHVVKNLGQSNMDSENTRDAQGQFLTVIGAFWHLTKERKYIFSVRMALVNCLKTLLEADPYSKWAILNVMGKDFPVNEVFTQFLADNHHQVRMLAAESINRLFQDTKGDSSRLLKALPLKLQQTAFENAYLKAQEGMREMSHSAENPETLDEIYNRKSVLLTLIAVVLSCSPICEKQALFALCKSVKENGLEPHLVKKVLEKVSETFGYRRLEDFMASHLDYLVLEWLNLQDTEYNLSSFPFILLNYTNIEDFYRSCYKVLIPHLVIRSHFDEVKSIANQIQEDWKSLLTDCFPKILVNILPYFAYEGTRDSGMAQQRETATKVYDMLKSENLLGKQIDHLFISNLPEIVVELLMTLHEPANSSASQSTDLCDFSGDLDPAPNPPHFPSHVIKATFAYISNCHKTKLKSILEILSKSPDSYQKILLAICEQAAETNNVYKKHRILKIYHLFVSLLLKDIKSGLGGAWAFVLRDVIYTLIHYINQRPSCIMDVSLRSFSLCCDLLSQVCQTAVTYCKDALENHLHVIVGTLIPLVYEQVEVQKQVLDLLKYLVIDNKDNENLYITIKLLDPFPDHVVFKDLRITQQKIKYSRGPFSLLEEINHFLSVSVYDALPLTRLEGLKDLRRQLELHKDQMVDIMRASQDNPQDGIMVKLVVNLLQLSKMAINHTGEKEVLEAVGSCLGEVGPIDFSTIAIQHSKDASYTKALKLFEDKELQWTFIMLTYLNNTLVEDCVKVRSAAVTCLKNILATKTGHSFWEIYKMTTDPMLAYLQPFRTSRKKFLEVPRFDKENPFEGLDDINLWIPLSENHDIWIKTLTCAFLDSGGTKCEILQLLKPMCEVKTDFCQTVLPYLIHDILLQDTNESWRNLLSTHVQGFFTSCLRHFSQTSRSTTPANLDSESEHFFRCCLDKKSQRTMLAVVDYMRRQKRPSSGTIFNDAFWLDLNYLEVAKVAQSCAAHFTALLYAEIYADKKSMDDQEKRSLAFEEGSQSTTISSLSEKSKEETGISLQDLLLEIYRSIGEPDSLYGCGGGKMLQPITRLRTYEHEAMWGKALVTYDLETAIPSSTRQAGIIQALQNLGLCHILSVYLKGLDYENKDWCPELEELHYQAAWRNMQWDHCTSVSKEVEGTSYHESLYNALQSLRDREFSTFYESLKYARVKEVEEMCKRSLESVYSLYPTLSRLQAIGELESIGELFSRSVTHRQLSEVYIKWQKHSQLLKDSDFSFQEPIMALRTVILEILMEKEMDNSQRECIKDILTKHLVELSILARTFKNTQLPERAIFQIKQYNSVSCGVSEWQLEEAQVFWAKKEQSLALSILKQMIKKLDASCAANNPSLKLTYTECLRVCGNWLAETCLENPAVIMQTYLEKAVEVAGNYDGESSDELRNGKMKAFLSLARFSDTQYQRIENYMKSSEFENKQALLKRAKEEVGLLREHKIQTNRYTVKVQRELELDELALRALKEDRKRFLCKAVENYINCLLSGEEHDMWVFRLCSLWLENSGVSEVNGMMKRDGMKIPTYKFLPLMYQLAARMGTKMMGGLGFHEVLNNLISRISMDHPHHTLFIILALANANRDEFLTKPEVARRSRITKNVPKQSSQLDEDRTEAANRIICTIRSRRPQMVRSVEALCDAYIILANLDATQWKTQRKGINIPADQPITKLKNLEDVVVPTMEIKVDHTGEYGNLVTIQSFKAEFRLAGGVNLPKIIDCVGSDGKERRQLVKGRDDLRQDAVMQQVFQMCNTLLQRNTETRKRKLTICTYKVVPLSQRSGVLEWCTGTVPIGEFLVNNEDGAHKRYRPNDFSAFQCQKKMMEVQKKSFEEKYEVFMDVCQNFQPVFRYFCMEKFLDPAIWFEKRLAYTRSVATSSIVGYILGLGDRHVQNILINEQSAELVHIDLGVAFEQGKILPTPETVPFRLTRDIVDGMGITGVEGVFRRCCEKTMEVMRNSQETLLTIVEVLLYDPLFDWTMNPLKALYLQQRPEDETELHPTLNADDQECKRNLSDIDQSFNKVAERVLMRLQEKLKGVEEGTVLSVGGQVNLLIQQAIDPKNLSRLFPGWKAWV
METHOD_NOTES: Western blot of phosphorylated ATM
ASSAY_METRIC: IC50 (nM)
Give just the numeric value; nM need not be written.

Write down IC50 measured for item COc1ccc(-c2ccc3ncc4c(c3c2)n(-c2ccc(N3CCNCC3)c(C(F)(F)F)c2)c(=O)n4C)cn1 [BGT226] 3.1
